- test_target: Polyunsaturated fatty acid lipoxygenase ALOX15 (Homo sapiens) (UniProt P16050)
- Sequence (P16050 whole entry, looked up): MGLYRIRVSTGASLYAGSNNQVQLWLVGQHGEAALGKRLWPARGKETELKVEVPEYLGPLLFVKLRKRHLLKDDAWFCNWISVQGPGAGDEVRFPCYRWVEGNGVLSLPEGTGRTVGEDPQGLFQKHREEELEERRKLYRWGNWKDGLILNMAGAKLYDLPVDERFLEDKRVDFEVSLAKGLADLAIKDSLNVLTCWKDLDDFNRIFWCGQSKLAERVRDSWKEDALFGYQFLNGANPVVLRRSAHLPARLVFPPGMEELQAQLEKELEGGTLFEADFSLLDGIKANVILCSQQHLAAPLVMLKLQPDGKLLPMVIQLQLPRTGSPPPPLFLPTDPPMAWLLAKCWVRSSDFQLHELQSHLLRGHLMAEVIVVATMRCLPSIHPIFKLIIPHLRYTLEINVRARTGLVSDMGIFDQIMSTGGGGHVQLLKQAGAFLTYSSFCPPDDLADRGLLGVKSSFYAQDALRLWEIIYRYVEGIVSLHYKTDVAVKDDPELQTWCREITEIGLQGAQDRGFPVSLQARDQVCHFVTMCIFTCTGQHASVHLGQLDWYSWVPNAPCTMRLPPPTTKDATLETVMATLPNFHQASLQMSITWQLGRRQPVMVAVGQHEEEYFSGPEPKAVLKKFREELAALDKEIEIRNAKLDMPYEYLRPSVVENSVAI
- measurement_notes: qHTS Assay for Inhibitors of 15-hLO (15-human lipoxygenase); further: on the % scale 0 is the no-effect control and ±100 the full control effect; nearly all actives have a fitted effect of over 55% in size
- assay_conditions: purified 15hLO-1, xylenol orange hydroperoxide absorbance; series mostly up to 57.1 µM
The campaign covered roughly 74,000 compounds. About 1,100 (1.5%) were called active. Another 5% or so got no clear call; they are omitted. The entries come from a sample that favours actives as a whole.
recorded_endpoint: activity change, negative = inhibition

Examples from the recorded data:
>>> print(df.to_string())
                                   compound                       recorded_endpoint                    test_result
0                  O=C(O)[C@@H](O)Cc1ccccn1  activity change, negative = inhibition  2.76% [at 11.4 µM] (inactive)
1  Nc1nc2c(nc(Cl)n2C2OC(CO)C(O)C2O)c(=O)[nH]1 (stereo not given)  activity change, negative = inhibition                       inactive
2  CCCCCCCCCc1ccc(OCCOCCOCCOCCOCCOCCOCCOCCOCCO)cc1  activity change, negative = inhibition                       inactive
3        COC(=O)C(C(=O)OC)[C@@H]1CCCC(=O)C1  activity change, negative = inhibition  14.4% [at 11.4 µM] (inactive)
4  CC1(C)OC(C(O)(c2ccccc2)c2ccccc2)C(C(O)(c2ccccc2)c2ccccc2)O1 (stereo not given)  activity change, negative = inhibition  14.5% [at 11.4 µM] (inactive)
5  Cc1cccc2c3c(ccc12)C1=C(C(=O)C3=O)C(C)CO1 (stereo not given)  activity change, negative = inhibition                       inactive
6                             Cc1cccc(Br)c1  activity change, negative = inhibition                       inactive
7  CCCNC(=O)OC[C@@H]1O[C@H](c2ccccc2)C=C[C@@H]1Oc1ccc(OC)cc1  activity change, negative = inhibition  6.55% [at 11.4 µM] (inactive)

Requested field: activity change, negative = inhibition. Item: CS(=O)(=O)N1CCC2(CC1)CN(Cc1ccccc1)C2 inactive

Requested field: activity change, negative = inhibition. Item: CCOC(=O)[C@]1(C(/C=C/c2ccco2)NC(=O)OC)CCCC1=O (stereo not given in full) 5.21% [at 11.4 µM] (inactive)

Requested field: activity change, negative = inhibition. Item: COC(=O)Nc1c(C)n(C)n(-c2ccccc2)c1=O inactive

Requested field: activity change, negative = inhibition. Item: CCCc1nc2c(C)cc(-c3nc4ccccc4n3C)cc2n1Cc1ccc(-c2ccccc2C(=O)O)cc1 inactive

Requested field: activity change, negative = inhibition. Item: CC(C)Cn1c(CCC(=O)O)ccc1-c1cccs1 inactive

Requested field: activity change, negative = inhibition. Item: COC(=O)NC(c1ccccc1)[C@]1(C(C)=O)CCCC1=O (stereo not given in full) 9.57% [at 11.4 µM] (inactive)

Requested field: activity change, negative = inhibition. Item: CCOC(=O)N/N=C1/C[C@@H](O)[C@@H](O)[C@@H]2[C@@H]3C(=O)N(CC)C(=O)[C@H]3CC[C@H]12 0.206% [at 11.4 µM] (inactive)

Requested field: activity change, negative = inhibition. Item: N#Cc1ccc(COC(=O)Cn2nnc(-c3ccccc3)n2)cc1 inactive

Requested field: activity change, negative = inhibition. Item: COc1ccc2[nH]cc(CCNc3ncnc4ccc(-c5ccc(C(=O)N(C)C)cc5)cc34)c2c1 inactive

Requested field: activity change, negative = inhibition. Item: Cc1ccc(-c2nc(CS(=O)CC(=O)N3CCN(c4ncccn4)CC3)c(C)o2)cc1 (stereo not given) inactive

Requested field: activity change, negative = inhibition. Item: CC(=O)OCC(=O)C1CCC2C3CCC4=CC(=O)CC[C@@]4(C)C3CC[C@]12C (stereo not given in full) inactive

Requested field: activity change, negative = inhibition. Item: Clc1ccc(CSc2nnc([C@@H]3CCCN3)o2)cc1 inactive

Requested field: activity change, negative = inhibition. Item: C[C@@H]1/C=C\CC(=O)OC[C@H]2O[C@@H](C=C[C@@H]2O)[C@H](C)/C=C\CC(=O)OC[C@H]2O[C@H]1C=C[C@@H]2O 5.92% [at 11.4 µM] (inactive)

Requested field: activity change, negative = inhibition. Item: OCCCNC(c1ccccc1)c1ccc(O)cc1 (stereo not given) inactive

Requested field: activity change, negative = inhibition. Item: CC(=O)OCC1OC(C#Cc2ccccc2Cl)C=CC1OC(C)=O (stereo not given) -0.11% [at 11.4 µM] (inactive)

Requested field: activity change, negative = inhibition. Item: CC1CCCCN1CCCNC(=O)c1ccc(-n2c(=O)c(=O)[nH]c3ccccc32)cc1 (stereo not given) inactive

----------
- test_target: Polyunsaturated fatty acid lipoxygenase ALOX15 (Homo sapiens) (UniProt P16050)
- measurement_notes: qHTS Assay for Inhibitors of 15-hLO (15-human lipoxygenase); further: on the % scale 0 is the no-effect control and ±100 the full control effect; nearly all actives have a fitted effect of over 55% in size
- assay_conditions: purified 15hLO-1, xylenol orange hydroperoxide absorbance; series mostly up to 57.1 µM
The whole screen tested about 74,000 compounds, of which about 1,100 (1.5%) were called active. About 5% were inconclusive and are not listed. Many of the other results were omitted from the sample, so actives are more common in it than they were.
recorded_endpoint: activity change, negative = inhibition

Examples from the recorded data:
                                   compound                       recorded_endpoint                    test_result
0            CCOC(=O)Cn1c(N)c(C(=O)OC)sc1=S  activity change, negative = inhibition                       inactive
1  C=C(C)C1CC=C(C)C(O)C1 (stereo unspecified)  activity change, negative = inhibition                       inactive
2  Cc1cc(C)cc(N(C(C)C(=O)Nc2c(C)n(C)n(-c3ccccc3)c2=O)S(C)(=O)=O)c1 (stereo unspecified)  activity change, negative = inhibition                       inactive
3  C=CCOC(=O)C(C(C)=O)C(NC(=O)OC)c1ccccc1 (stereo unspecified)  activity change, negative = inhibition  13.9% [at 11.4 µM] (inactive)

Requested field: activity change, negative = inhibition. Item: C/C(O)=C\c1nc(=O)c2c(C)cc(C)nc2n1-c1ccccc1 inactive

Requested field: activity change, negative = inhibition. Item: CO[C@H]1COC(=O)[C@H](Cc2ccccc2)NC(=O)C/C=C\[C@@H](C)[C@H](OC)COC(=O)C/C=C\[C@@H]1C 10.5% [at 11.4 µM] (inactive)
